Overview of recorded TGI for various molecules
test system: SNB-78 CNS; experiment: NCI tumour cell line growth inhibition, 48 h

Chemical Structure | TGI
CCCN(CCC)C(=O)c1nc(N)nc(-c2ccc(OC)cc2)c1-c1ccc(OC)cc1 | > 100 µM
CC(=O)NNc1nc(C)c(C(=O)/C=C/c2ccc(Cl)cc2)s1 | > 100 µM
O=S(=O)(N=NC=C1c2ccccc2N(O)c2ccccc21)c1ccc(Cl)cc1 | > 100 µM

###

test system: 786-0 renal; assay: NCI tumour cell line growth inhibition, 48 h
Catalogue of GI50 readings, one per entry.
Measurement Label: GI50

Chemical Structure | Target Or Test System | Recorded Result
ClCc1ccccc1Cn1cnc2c(Cl)ncnc21 | 786-0 renal | 17700 nM
Cn1nc(C(F)(F)F)c(-c2cc(C(F)(F)F)cc(C(F)(F)F)c2)c1-c1ccc(OCc2ccc(Cl)cc2)cc1O | 786-0 renal | 1630 nM
O=c1oc2cc(OC/C(=N/O)c3ccc(F)cc3)ccc2c2ccccc12 | 786-0 renal | 11700 nM
Clc1ccc2nc(CI)c(CI)nc2c1 | 786-0 renal | 4070 nM
C=C1C(=O)O[C@H]2[C@H]1CC/C(Cn1cc(-c3ccc(F)cc3)nn1)=C\CC[C@@]1(C)O[C@@H]21 | 786-0 renal | 1060 nM
COc1ccc(NC(=O)c2sc3nc(C)c(C(=O)/C=C/c4cccc(OC)c4)cc3c2N)cc1 | 786-0 renal | 856 nM

###

system: MCF7 breast; experiment: NCI tumour cell line growth inhibition, 48 h
The entries below are paired with their reported TGI.

Chemical Structure | Target Or Test System | TGI
N#C/C(=N\Nc1ccccc1)C(=O)Nc1cc(-c2ccccc2)nn1-c1ccccc1 | MCF7 breast | > 100 µM
CN1CCc2c(sc3ncn(Nc4ccc(Cl)cc4)c(=N)c23)C1 | MCF7 breast | > 100 µM
COc1ccc(/C=C2\SC(=Nc3ccccc3)NC2=O)cc1 | MCF7 breast | 42.1 µM

###

test system: DU-145 prostate; test: NCI tumour cell line growth inhibition, 48 h
Measurement Label: TGI (µM)

Compound | Measurement Label | Bound Operator | Recorded Result
C=C1C(=O)O[C@H]2[C@H]1CC/C(COC(=O)CCCc1c[nH]c3ccccc13)=C\CC[C@@]1(C)O[C@@H]21 | TGI | = | 3.18
CC(C)C(=O)/C=C/S/C=C/C(=O)C(C)C | TGI | = | 29.4
CCCCc1ccc(Nc2nc(Cl)c3ccn(C4CC(Oc5ccc(C)cc5)C(COc5ccc(C)cc5)O4)c3n2)cc1 (configuration not stated) | TGI | > | 46.4
CC1(C)OC(=O)C(C#N)=C1C[n+]1ccccc1 | TGI | > | 10
C=C(C)[C@H]1C2=CC(C)=C(O2)[C@@H](O)[C@H](C(=C)C)CCC2=C[C@H]1OC2=O | TGI | > | 100
O=C(CN1CCCCC1)Nc1ccc2c(c1)C1Oc3ccccc3CC1CO2 (configuration not stated) | TGI | > | 100
C[C@H]1CNC(=O)c2cnn3ccc(nc23)N[C@H](C)c2cc(F)ccc2O1 | TGI | = | 12.8
CC1(C)C2CCC1C(=O)[C@@]1(C=CC(=O)CC1)C2 (some centres not stated) | TGI | > | 100
Nc1ccc(COC(O)CN2CCCCC2)cc1[N+](=O)[O-] (configuration not stated) | TGI | > | 100
COc1cc(C(=O)O[C@H](C(=O)NCCN(C)CCNC(=O)[C@@H](OC(=O)c2cc(OC)cc3c(C)cccc23)[C@]2(C)CO2)[C@]2(C)CO2)c2cccc(C)c2c1 | TGI | = | 0.162
Cc1c(C)c(C)c(-n2c(=O)n(C)c(=O)n2-c2cc(C(C)(C)C)cc(C(C)(C)C)c2O)c(C)c1C | TGI | = | 25.9
Cc1ccc2c(c1)C(=O)c1c-2c(OCCCN(C)C)nc2ccccc12 | TGI | = | 13.9

###

Below, each entry is listed alongside its reported TGI.
tested on: HS 578T breast; test: NCI tumour cell line growth inhibition, 48 h
Measurement Label: TGI

Compound | Recorded Result
COc1cc(C(=O)O[C@H](C(=O)NCCN(C)CCNC(=O)[C@@H](OC(=O)c2cc(OC)cc3c(C)cccc23)[C@]2(C)CO2)[C@]2(C)CO2)c2cccc(C)c2c1 | > 100 µM
COc1c(Br)cc2ccccc2c1-c1c(OC)c(Br)cc2ccccc12 | > 100 µM
CC(=O)OC12c3ccccc3-c3ccccc3C1C(C(=O)O)C2C(=O)O (configuration not stated) | > 10 µM
CC(C(=O)c1ccncc1)c1ccccn1 (configuration not stated) | > 100 µM
O[C@@H]1CCC[C@@H]2NC[C@@H](c3ccc4c(c3)OCO4)[C@H]12 | > 100 µM
O=C(O)/C(=C\c1ccc(O)cc1)c1cccc2ccccc12 | > 100 µM
CC(=O)NC(CSC1=C2NC(=O)\C=C/C=C/C=C\C(C)C(O)CC(=O)/C(C)=C\CC(O)/C=C/C(C)C(O)C(C)C=C(C)C(=O)c3c(O)c(C)cc(c3C1=O)C2=O)C(=O)O (configuration not stated) | > 100 µM
O=C(Nc1ccc(F)cc1)Nc1ccc(Br)c(C(F)(F)F)c1 | 9.31 µM
COc1ccc(/C=C2\SC(=Nc3ccccc3)NC2=O)cc1 | 40.7 µM
COc1cc(Cc2cnc(N)nc2N)cc(OC)c1OCCCNc1ccc([N+](=O)[O-])cc1 | > 100 µM
CC(=O)O[C@H]1C(=O)[C@@]2(C)[C@H]([C@H](OC(=O)c3ccccc3)[C@]3(O)C[C@H](OC(=O)[C@H](O)[C@@H](NC(=O)c4ccccc4)c4cccc(N(C)C)c4)C(C)=C1C3(C)C)[C@]1(OC(C)=O)CO[C@@H]1C[C@@H]2O | 0.603 µM
COC(=O)c1c2c(c(C)[n+]([O-])c1C)C(=O)C=C(NCc1cccc(Cl)c1)C2=O | 6.79 µM

###

system: A498 renal; assay: NCI tumour cell line growth inhibition, 48 h

Compound | Target Or Test System | TGI
CCCCc1ccc(Nc2nc(Cl)c3c(ncn3C3CC(Oc4ccc(C)cc4)C(COc4ccc(C)cc4)O3)n2)cc1 (stereo not drawn) | A498 renal | > 100 µM
Cc1c(Cl)cccc1NC(=O)/C=C/c1ccccc1 | A498 renal | > 100 µM
COc1cc(C2C3=C(CCCC3=O)N(c3ccc(C)cc3)C3=C2C(=O)CCC3)c([N+](=O)[O-])cc1OC | A498 renal | > 100 µM
Cc1cc2c(c(S(=O)(=O)c3ccccc3[N+](=O)[O-])c1)NCCC2 | A498 renal | > 100 µM
NC(=O)CC(N)C(=O)NC(Cc1ccccc1)C(=O)NC(Cc1ccccc1)NC(=O)C(Cc1c[nH]c2ccccc12)C(=O)O (stereo not drawn) | A498 renal | > 100 µM
Nc1nc(SCc2ccccc2Cl)cc(C(=O)O)n1 | A498 renal | > 100 µM
Cc1nc2ccc(F)cc2c(Cl)c1CCCl | A498 renal | > 100 µM
O=C(CI)Nc1ccc(O)c2ccccc12 | A498 renal | 9.12 µM
CCCCCCCCCCCCCC[n+]1ccc(C(N)=O)cc1 | A498 renal | 21.5 µM
O=C(Nc1ccccc1Cl)c1ccc([N+](=O)[O-])cc1 | A498 renal | > 100 µM
COC(=O)C(=O)C(C(=O)C(=O)Nc1ccccc1OC)c1nc2ccc([N+](=O)[O-])cc2[nH]c1=O (stereo not drawn) | A498 renal | > 100 µM
COc1ccc2c(c1OC)C(C(Cl)(Cl)Cl)N1CCc3cc4c(cc3C1=C2)OCO4 (stereo not drawn) | A498 renal | > 100 µM
CC([C@H]1CC=C2C3CCC4=C[C@@H](N(C)C)CC[C@]4(C)C3CC[C@@]21C)N(C)C (stereo partly drawn) | A498 renal | 13.9 µM
C=C1C(=O)O[C@H]2[C@H]1CC/C(Cn1cc(-c3ccc(F)cc3)nn1)=C\CC[C@@]1(C)O[C@@H]21 | A498 renal | 3.91 µM
Cc1nc(/C=C2\C(=O)C=Cc3ccccc32)c(O)o1 | A498 renal | > 100 µM
CCCCc1c2cnccc2c(CCCC)c2c1[nH]c1ccccc12 | A498 renal | 35.2 µM
CC(C(=O)c1ccccc1)C1(O)C(=O)Nc2ccc(Cl)cc21 (stereo not drawn) | A498 renal | > 100 µM
O=C1C(=O)c2ccccc2C(O)=C1CCCc1ccc(C2CCCCC2)cc1 | A498 renal | 20.9 µM
COC(=O)C1=C(C(=O)OC)C(N(C)C)C(C(=O)OC)=C(C(=O)OC)S1 | A498 renal | > 100 µM
O=C(N/N=C\c1cccc2ccccc12)Nc1cccc2ccccc12 | A498 renal | 51.3 µM
COc1c(Br)cc2ccccc2c1-c1c(OC)c(Br)cc2ccccc12 | A498 renal | > 100 µM
c1ccc(Nc2nn3c(CCCCCCCCc4nnc5sc(Nc6ccccc6)nn45)nnc3s2)cc1 | A498 renal | > 100 µM
CC(=O)/C=C/C1=C(c2csc3ccccc23)c2ccccc2CC1 | A498 renal | 50.2 µM
O=CN1N=C(c2cccc(Nc3ccnc4cc(Cl)ccc34)c2)CC1c1ccccc1 (stereo not drawn) | A498 renal | 1.1 µM
O=P(Nc1ccccc1)(Oc1ccccc1)N(CCCl)CCCl (stereo not drawn) | A498 renal | > 100 µM
O=C(/C=C1\C(=O)N(Cc2ccccc2)c2ccccc21)c1ccc(OCCN2CCCCC2)cc1 | A498 renal | 28.8 µM
COc1ccc(/C=C2\SC(=Nc3ccccc3)NC2=O)cc1 | A498 renal | 7.34 µM
NC(N)=NC(N)=NCCCc1ccco1 | A498 renal | > 500 µM
C=C(C)[C@H]1C2=CC(C)=C(O2)[C@@H](O)[C@H](C(=C)C)CCC2=C[C@H]1OC2=O | A498 renal | > 100 µM
Cc1cccc(C)c1N1C(=O)C(=O)C(c2nc3ccccc3s2)/C(=N/NC(=O)c2ccccc2O)C1=O (stereo not drawn) | A498 renal | > 100 µM
CC(C)(C)N/N=C(\C(=O)Nc1nc(=S)[nH][nH]1)C1C(=O)Nc2ccccc2S1=O (stereo not drawn) | A498 renal | > 100 µM
C=C1C(=O)O[C@H]2[C@H]1CC/C(COC(=O)OC/C1=C/CC[C@@]3(C)O[C@H]3[C@H]3OC(=O)[C@@H](CN(C)C)[C@@H]3CC1)=C\CC[C@@]1(C)O[C@@H]21 | A498 renal | 21.8 µM
CN(C)CCOc1ccc(-c2c(Oc3ccccc3)c(=O)oc3ccccc23)cc1 | A498 renal | 27 µM
CC(C)C(=O)c1c(C(F)(F)F)n([O-])c2cc(F)c(F)cc2[n+]1=O | A498 renal | 1.33 µM
CC(C(=O)c1ccncc1)c1ccccn1 (stereo not drawn) | A498 renal | > 100 µM
Nn1c(=O)[nH]c2ncn(Cc3ccccc3)c2c1=O | A498 renal | > 100 µM
Cc1[nH]c2ccccc2c1/C=N/NC(=O)c1cccc(I)c1 | A498 renal | 34.6 µM
O=C(O)c1c2c(cc3c1CC1(Cc4cc5c(cc4C1=O)CCC5)C3)CCC2 (stereo not drawn) | A498 renal | > 100 µM
